- tested target: A16V.S108T mutant (mut) of DHFR from Plasmodium falciparum (Plasmodium falciparum, UniProt A7UD81, A16V/S108T)
- Construct: The Dihydrofolate Reductase Domain of Plasmodium falciparum Thymidylate Synthase-Dihydrofolate Reductase; made in house
- Sequence (A7UD81 1-231 A16V/S108T): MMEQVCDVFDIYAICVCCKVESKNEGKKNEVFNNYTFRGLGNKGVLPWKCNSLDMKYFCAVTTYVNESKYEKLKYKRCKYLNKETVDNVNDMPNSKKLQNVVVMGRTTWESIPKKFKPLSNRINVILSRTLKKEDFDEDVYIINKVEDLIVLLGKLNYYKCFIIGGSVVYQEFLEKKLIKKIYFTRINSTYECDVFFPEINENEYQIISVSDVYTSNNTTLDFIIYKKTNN
- method: biochemical
observation type: Ki (nM)

compound="Cl.NC1=NC(c2ccccc2)N(c2cccc(Cl)c2)C(N)=N1 (stereo not shown) [(Ib) R2=phenyl, hydrochloride]" observation_type=Ki uom=nM observed_value=10
compound="COc1cc(C2N=C(N)N=C(N)N2c2cccc(Cl)c2)cc(OC)c1OC (stereo not shown)" observation_type=Ki uom=nM observed_value=1010
compound="NC1=NC(c2cccc(Oc3ccccc3)c2)N(c2ccc(Cl)cc2)C(N)=N1 (stereo not shown)" observation_type=Ki uom=nM observed_value=2.7
compound="NC1=NC(c2cccc(Oc3ccccc3)c2)N(c2cccc(Cl)c2)C(N)=N1 (stereo not shown)" observation_type=Ki uom=nM observed_value=1.9
compound="CC1(C)N=C(N)N=C(N)N1c1ccc(Cl)cc1 [cycloguanil, Cycloguanil, reference compound]" observation_type=Ki uom=nM observed_value=1310
compound="NC1=NC(c2cccc(Oc3ccccc3)c2)N(c2ccc(Cl)c(Cl)c2)C(N)=N1 (stereo not shown)" observation_type=Ki uom=nM observed_value=5.2
compound="NC1=NC(c2ccc(O)cc2)N(c2ccc(Cl)cc2)C(N)=N1 (stereo not shown) [(Ia) R2=p-hydroxyphenyl]" observation_type=Ki uom=nM observed_value=98

----------
- System: Plasmodium berghei
- method: In vivo activity against Plasmodium berghei in mice
- condition: P. berghei, 25 mg/kg daily x4
observation type: Mean % infected RBC (%)

compound="NC1=NC(c2cccc(Oc3ccc(Cl)cc3)c2)N(c2cccc(Cl)c2)C(N)=N1 (centres unmarked)" observation_type="Mean % infected RBC" observed_value=5.0
compound="COc1ccc(Oc2cccc(C3N=C(N)N=C(N)N3c3cccc(Cl)c3)c2)cc1 (centres unmarked)" observation_type="Mean % infected RBC" observed_value=1.94
compound="NC1=NC(c2cccc(Oc3ccc(Cl)c(Cl)c3)c2)N(c2cccc(Cl)c2)C(N)=N1 (centres unmarked)" observation_type="Mean % infected RBC" observed_value=13.0
compound="NC1=NC(c2cccc(Oc3ccccc3)c2)N(c2cccc(Cl)c2)C(N)=N1 (centres unmarked)" observation_type="Mean % infected RBC" observed_value=7.05
compound="CCCCOc1ccc(C2N=C(N)N=C(N)N2c2cccc(Cl)c2)cc1 (centres unmarked)" observation_type="Mean % infected RBC" observed_value=16.46

----------
- tested target: DHFR-TS from Trypanosoma cruzi (Trypanosoma cruzi, UniProt Q27793)
- Construct: pET 11c with the insertion of the complete ORF of the gene tc-dhfrts; made in house; host or cells: E. coli BL21 (DE3)
- Sequence (Q27793 whole entry): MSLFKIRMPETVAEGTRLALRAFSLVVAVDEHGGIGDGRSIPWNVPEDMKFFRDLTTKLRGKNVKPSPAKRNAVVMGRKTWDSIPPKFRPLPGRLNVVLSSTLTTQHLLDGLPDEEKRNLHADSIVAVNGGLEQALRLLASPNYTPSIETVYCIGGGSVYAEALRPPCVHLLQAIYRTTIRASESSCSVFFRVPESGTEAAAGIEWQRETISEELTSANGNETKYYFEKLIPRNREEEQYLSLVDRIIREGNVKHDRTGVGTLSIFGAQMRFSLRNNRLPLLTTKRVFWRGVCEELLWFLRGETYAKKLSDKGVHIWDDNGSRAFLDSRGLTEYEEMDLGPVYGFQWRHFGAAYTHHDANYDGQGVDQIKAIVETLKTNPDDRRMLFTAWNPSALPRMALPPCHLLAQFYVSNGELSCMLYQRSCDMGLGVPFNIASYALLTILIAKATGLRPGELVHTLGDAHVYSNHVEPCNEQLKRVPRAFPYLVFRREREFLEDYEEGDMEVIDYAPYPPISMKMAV
- method: Inhibition of T. cruzi DHFR-TS (I50-derived Ki);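 note: enzymes were recombinant T. cruzi DHFR-TS and human DHFR, both expressed in E. coli and purified on a methotrexate affinity column, with dihydrofolate and NADPH as substrates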
- Format: biochemical
- condition: human Ki / T. cruzi Ki
Cut-off 9 on Selectivity, inclusive. At or above means Y; below means N.

compound="NC1=NC(c2ccc(Oc3ccccc3)cc2)N(c2ccc(Cl)cc2)C(N)=N1 (stereo not shown) [(Ia) R2=p-phenoxyphenyl]" cat=Y
compound="COc1ccc(Oc2cccc(C3N=C(N)N=C(N)N3c3ccc(Cl)cc3)c2)cc1 (stereo not shown) [(Ia) R2=3-(4-methoxyphenoxyl)phenyl]" cat=Y
compound="COc1ccc(C2N=C(N)N=C(N)N2c2ccc(F)cc2)cc1 (stereo not shown) [R2=4-MeOC6H4, X=F, Y=H]" cat=Y
compound="COc1cc(OC)cc(C2N=C(N)N=C(N)N2c2ccc(Cl)cc2)c1 (stereo not shown) [(Ia) R2=3,5-dimethoxyphenyl]" cat=Y
compound="NC1=NCN(c2cccc(Cc3ccccc3)c2)C(N)=N1 [R2=H, X=H, Y=Bn]" cat=N
compound="NC1=NC(c2ccc(F)cc2)N(c2ccc(Cl)cc2)C(N)=N1 (stereo not shown) [(Ia) R2=p-fluorophenyl]" cat=Y
compound="CC(C)(C)c1ccc(Oc2cccc(C3N=C(N)N=C(N)N3c3ccc(Cl)cc3)c2)cc1 (stereo not shown) [(Ia) R2=3-(4-t-butylphenoxy)phenyl]" cat=N
compound="CCCCOc1ccc(C2N=C(N)N=C(N)N2c2ccc(Cl)cc2)cc1 (stereo not shown) [(Ia) R2=p-butyloxyphenyl]" cat=Y
compound="Cl.NC1=NCN(c2ccc(Cl)cc2)C(N)=N1 [(Ia) R2=H]" cat=Y
compound="NC1=NC(c2cccc(OCc3ccccc3)c2)N(c2ccc(OCc3ccccc3)cc2)C(N)=N1 (stereo not shown) [R2=3-BnOC6H4, X=BnO, Y=H]" cat=N
compound="NC1=NC(c2cccc(OCc3ccccc3)c2)N(c2cccc(COc3cc(Cl)c(Cl)cc3Cl)c2)C(N)=N1 (stereo not shown) [(Id1) R2=3-benzyloxyphenyl]" cat=N
compound="NC1=NC(c2cccc(Oc3ccccc3)c2)N(c2ccc(OCc3ccccc3)cc2)C(N)=N1 (stereo not shown)" cat=N
compound="COc1ccc(C2N=C(N)N=C(N)N2c2ccc(Cl)cc2)cc1OC (stereo not shown) [(Ia) R2=3,4-dimethoxyphenyl]" cat=Y
compound="NC1=NC(c2ccc(OCc3ccccc3)cc2)N(c2ccc(Cl)cc2)C(N)=N1 (stereo not shown) [(Ia) R2=p-benzyloxyphenyl]" cat=Y

----------
Some molecules, each annotated with its measured Ki (human)/Ki (P. falc. mut).
- tested target: human DHFR
- method: Inhibition of human DHFR (I50-derived Ki);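 note: recombinant human DHFR expressed in E. coli and purified by methotrexate affinity chromatography, enzyme activity followed spectrophotometrically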
- Format: biochemical
observation type: Ki (human)/Ki (P. falc. mut)

molecule="NC1=NC(c2cccc(OCc3ccccc3)c2)N(c2ccc(OCc3ccccc3)cc2)C(N)=N1 (stereo not drawn)" observed_value=56
molecule=NC1=NCN(c2ccc(OCc3ccccc3)cc2)C(N)=N1 observed_value=1.54
molecule="NC1=NC(c2cccc(O)c2)N(c2ccc(Cl)cc2)C(N)=N1 (stereo not drawn) [(Ia) R2=m-hydroxyphenyl]" observed_value=13.7
molecule="COc1ccc(C2N=C(N)N=C(N)N2c2ccc(Cl)cc2)cc1 (stereo not drawn)" observed_value=42.9
molecule="NC1=NC(c2cccc(OCc3ccccc3)c2)N(c2cccc(COc3cc(Cl)c(Cl)cc3Cl)c2)C(N)=N1 (stereo not drawn)" observed_value=1.9
molecule=NC1=NCN(c2cccc(Cc3ccccc3)c2)C(N)=N1 observed_value=11
molecule="CCOc1ccc(C2N=C(N)N=C(N)N2c2ccc(Cl)cc2)cc1 (stereo not drawn)" observed_value=48
molecule="NC1=NC(c2cccc(Oc3ccccc3)c2)N(c2ccc(OCc3ccccc3)cc2)C(N)=N1 (stereo not drawn)" observed_value=2.2
molecule="NC1=NC(c2cccc(OCc3ccccc3)c2)N(c2cccc(Cc3ccccc3)c2)C(N)=N1 (stereo not drawn)" observed_value=39
molecule=Cl.NC1=NCN(c2ccc(Cl)cc2)C(N)=N1 observed_value=1.9
molecule="NC1=NC(c2ccc(O)cc2)N(c2cccc(Cl)c2)C(N)=N1 (stereo not drawn) [(Ib) R2=4-hydroxyphenyl]" observed_value=0.97
molecule="CCCCOc1ccc(C2N=C(N)N=C(N)N2c2ccc(Cl)cc2)cc1 (stereo not drawn)" observed_value=80
molecule="NC1=NC(c2ccc(Cl)cc2)N(c2ccc(Cl)cc2)C(N)=N1 (stereo not drawn)" observed_value=28
molecule="NC1=NC(c2cccc(Oc3ccccc3)c2)N(c2cccc(Cl)c2)C(N)=N1 (stereo not drawn)" observed_value=0.8
molecule=Cl.NC1=NCN(c2ccccc2)C(N)=N1 observed_value=2.44
molecule="CCCCOc1ccc(C2N=C(N)N=C(N)N2c2ccc(OCc3ccccc3)cc2)cc1 (stereo not drawn)" observed_value=31
molecule="CC(C)c1ccc(C2N=C(N)N=C(N)N2c2ccc(Cl)cc2)cc1 (stereo not drawn)" observed_value=661
molecule="NC1=NC(c2ccc(F)cc2)N(c2ccc(Cl)cc2)C(N)=N1 (stereo not drawn)" observed_value=81

----------
- Tested on: A16V.S108T mutant (mut) of DHFR from Plasmodium falciparum
- method: biochemical
- condition: resistance factor
observation type: Ki(mut)/Ki(wt)

compound="Cl.NC1=NC(c2ccccc2)N(c2cccc(Cl)c2)C(N)=N1 (stereo not shown) [(Ib) R2=phenyl]" observed_value=0.9
compound="CC(C)(C)c1ccc(Oc2cccc(C3N=C(N)N=C(N)N3c3ccc(Cl)cc3)c2)cc1 (stereo not shown) [(Ia) R2=3-(4-t-butylphenoxy)phenyl]" observed_value=5.8
compound="NC1=NC(c2cccc(OCc3ccccc3)c2)N(c2cccc(OCc3ccccc3)c2)C(N)=N1 (stereo not shown) [R2=3-BnOC6H4, X=H, Y=BnO]" observed_value=1.7
compound="NC1=NC(c2ccc(Oc3ccccc3)cc2)N(c2ccc(Cl)cc2)C(N)=N1 (stereo not shown) [(Ia) R2=p-phenoxyphenyl]" observed_value=9.5

----------
- tested target: wild-type (wt) DHFR from Plasmodium falciparum (Plasmodium falciparum, UniProt P13922, N108S/R59C)
- Construct: The Dihydrofolate Reductase Domain of Plasmodium falciparum Thymidylate Synthase-Dihydrofolate Reductase; made in house
- Sequence (P13922 10-228 R59C/N108S): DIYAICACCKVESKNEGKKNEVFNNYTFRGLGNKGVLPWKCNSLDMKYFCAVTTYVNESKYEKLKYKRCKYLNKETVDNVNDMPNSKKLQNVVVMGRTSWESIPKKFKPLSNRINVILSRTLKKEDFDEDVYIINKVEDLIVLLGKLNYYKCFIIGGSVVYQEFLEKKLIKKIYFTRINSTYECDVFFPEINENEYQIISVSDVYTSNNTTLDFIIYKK
- method: Inhibition of wild-type pfDHFR (spectrophotometric, Ki);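 note: Affinity-purified enzyme, initial reaction rates measured across a range of inhibitor concentrations, Ki obtained by nonlinear least-squares fitting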
- Assay type: biochemical
- condition: Ki(wt) nM
observation type: log10 of Ki (log10 of the value in nM)

molecule="NC1=NC(c2ccc(Oc3ccccc3)cc2)N(c2cccc(Cl)c2)C(N)=N1 (stereo not shown) [(Ib) R2=4-phenoxyphenyl]" observed_value=-0.15
molecule="NC1=NC(c2cccc(Oc3ccccc3)c2)N(c2cccc(Cl)c2)C(N)=N1 (stereo not shown) [(Ib) R2=3-phenoxyphenyl]" observed_value=0.00
molecule="NC1=NC(c2cccc(Oc3ccccc3)c2)N(c2ccc(Cl)cc2)C(N)=N1 (stereo not shown) [(Ia) R2=m-phenoxyphenyl]" observed_value=-0.30
molecule="Cl.NC1=NC(c2ccccc2)N(c2cccc(Cl)c2)C(N)=N1 (stereo not shown) [(Ib) R2=phenyl, hydrochloride]" observed_value=1.07
molecule="NC1=NC(c2ccc(OCc3ccccc3)cc2)N(c2ccc(Cl)cc2)C(N)=N1 (stereo not shown) [(Ia) R2=p-benzyloxyphenyl]" observed_value=-0.22
molecule="NC1=NC(c2cccc(Oc3ccccc3)c2)N(c2cccc(-c3ccccc3)c2)C(N)=N1 (stereo not shown)" observed_value=0.30
molecule="COc1cc(OC)cc(C2N=C(N)N=C(N)N2c2cccc(Cl)c2)c1 (stereo not shown) [(Ib) R2=3,5-dimethoxyphenyl]" observed_value=1.90
molecule="NC1=NC(c2ccc(O)cc2)N(c2ccc(Cl)cc2)C(N)=N1 (stereo not shown) [(Ia) R2=p-hydroxyphenyl]" observed_value=1.05
molecule="NC1=NC(c2cccc(O)c2)N(c2cccc(Cl)c2)C(N)=N1 (stereo not shown) [(Ib) R2=3-hydroxyphenyl]" observed_value=1.45
molecule="COc1cc(OC)cc(C2N=C(N)N=C(N)N2c2ccc(Cl)cc2)c1 (stereo not shown) [(Ia) R2=3,5-dimethoxyphenyl]" observed_value=1.58
molecule="NC1=NCN(c2ccc(OCc3ccccc3)cc2)C(N)=N1 [R2=H, X=BnO, Y=H]" observed_value=1.35
molecule="NC1=NC(c2cccc(OCc3ccccc3)c2)N(c2cccc(OCc3ccccc3)c2)C(N)=N1 (stereo not shown) [R2=3-BnOC6H4, X=H, Y=BnO]" observed_value=0.63
molecule="CC(C)c1ccc(C2N=C(N)N=C(N)N2c2ccc(Cl)cc2)cc1 (stereo not shown) [(Ia) R2=p-isopropylphenyl]" observed_value=0.28
molecule="COc1ccc(Oc2cccc(C3N=C(N)N=C(N)N3c3cccc(Cl)c3)c2)cc1 (stereo not shown) [(Ib) R2=3-(4-methoxyphenoxy)phenyl]" observed_value=0.36
molecule="NC1=NC(c2ccc(Br)cc2)N(c2cccc(Cl)c2)C(N)=N1 (stereo not shown) [(Ib) R2=4-bromophenyl]" observed_value=1.43
molecule="COc1cccc(C2N=C(N)N=C(N)N2c2ccc(Cl)cc2)c1 (stereo not shown) [(Ia) R2=m-methoxyphenyl]" observed_value=1.02
molecule="Cl.NC1=NCN(c2ccc(Cl)cc2)C(N)=N1 [(Ia) R2=H, hydrochloride]" observed_value=1.39
molecule="NC1=NC(c2cccc(OCc3ccccc3)c2)N(c2cccc(Cc3ccccc3)c2)C(N)=N1 (stereo not shown) [R2=3-BnOC6H4, X=H, Y=Bn]" observed_value=0.36
molecule="NC1=NC(c2ccc(Oc3ccccc3)cc2)N(c2ccc(Cl)cc2)C(N)=N1 (stereo not shown) [(Ia) R2=p-phenoxyphenyl]" observed_value=-0.40
molecule="COc1ccc(C2N=C(N)N=C(N)N2c2ccc(Cl)cc2)cc1 (stereo not shown) [(Ia) R2=p-methoxyphenyl]" observed_value=1.06
molecule="NC1=NC(c2cccc(Oc3ccc(Cl)cc3)c2)N(c2ccc(Cl)cc2)C(N)=N1 (stereo not shown) [(Ia) R2=3-(4-chlorophenoxy)phenyl]" observed_value=0.15
molecule="NC1=NC(c2ccc(F)cc2)N(c2ccc(Cl)cc2)C(N)=N1 (stereo not shown) [(Ia) R2=p-fluorophenyl]" observed_value=0.93
molecule="CCCCOc1ccc(C2N=C(N)N=C(N)N2c2ccc(OCc3ccccc3)cc2)cc1 (stereo not shown)" observed_value=-0.10
molecule="COc1ccc(C2N=C(N)N=C(N)N2c2cccc(Cl)c2)cc1 (stereo not shown) [(Ib) R2=4-methoxyphenyl]" observed_value=1.34
molecule="NC1=NC(c2cccc(Oc3ccc(Cl)cc3)c2)N(c2cccc(Cl)c2)C(N)=N1 (stereo not shown) [(Ib) R2=3-(4-chlorophenoxy)phenyl]" observed_value=0.11
molecule="NC1=NC(c2cccc(Oc3cc(Cl)cc(Cl)c3)c2)N(c2cccc(Cl)c2)C(N)=N1 (stereo not shown) [(Ib) R2=3-(3,5-dichlorophenoxy)phenyl]" observed_value=0.26
molecule="COc1ccc(C2N=C(N)N=C(N)N2c2cccc(Cl)c2)cc1OC (stereo not shown) [(Ib) R2=3,4-dimethoxyphenyl]" observed_value=1.43
molecule="COc1ccc(Oc2cccc(C3N=C(N)N=C(N)N3c3ccc(Cl)cc3)c2)cc1 (stereo not shown) [(Ia) R2=3-(4-methoxyphenoxyl)phenyl]" observed_value=-0.15
molecule="CC(C)(C)c1ccc(Oc2cccc(C3N=C(N)N=C(N)N3c3ccc(Cl)cc3)c2)cc1 (stereo not shown) [(Ia) R2=3-(4-t-butylphenoxy)phenyl]" observed_value=0.23
molecule="CC(C)(C)c1ccc(Oc2cccc(C3N=C(N)N=C(N)N3c3cccc(Cl)c3)c2)cc1 (stereo not shown) [(Ib) R2=3-(4-t-butylphenoxy)phenyl]" observed_value=0.89
molecule="NC1=NC(c2cccc(Oc3ccccc3)c2)N(c2ccc(OCc3ccccc3)cc2)C(N)=N1 (stereo not shown)" observed_value=-0.05
